Target Entity: Factor Xa (Homo sapiens, UniProt P00742)
Construct: Factor Xa; 0.2 μM in 50% glycerol (9.2 μg/mL)
Sequence (P00742 235-488 limits assumed): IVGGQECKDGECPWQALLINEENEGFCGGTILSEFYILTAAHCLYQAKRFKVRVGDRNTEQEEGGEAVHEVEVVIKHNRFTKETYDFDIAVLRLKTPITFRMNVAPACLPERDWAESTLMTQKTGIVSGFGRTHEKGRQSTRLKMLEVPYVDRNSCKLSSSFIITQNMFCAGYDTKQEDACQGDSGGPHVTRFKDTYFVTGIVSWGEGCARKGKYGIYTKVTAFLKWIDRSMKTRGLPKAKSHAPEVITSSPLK
Sequence (P00742 41-179 partner limits assumed): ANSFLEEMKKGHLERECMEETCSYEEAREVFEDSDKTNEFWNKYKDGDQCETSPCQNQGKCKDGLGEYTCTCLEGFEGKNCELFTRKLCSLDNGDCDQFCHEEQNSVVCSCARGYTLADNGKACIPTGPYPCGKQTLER
Test Protocol: Dose response assay for protease inhibitors: Factor Xa (FXIa fold selectivity)
Format: biochemical
Details: fold selectivity for FXIa over Factor Xa
Measure Name: FXIa Fold Selectivity FXa

// below: answered molecules
>  <Molecule>
CCOC(=O)[C@@H]1[C@@H](Cc2ccnc(N)c2)C(=O)N1C(=O)N[C@H](C)c1ccc(OC(F)(F)F)cc1

>  <Target Entity>
Factor Xa (Homo sapiens, UniProt P00742)

>  <FXIa Fold Selectivity FXa>
I (“I” indicates >1000)

$$$$
>  <Molecule>
CS(=O)(=O)[C@@H]1[C@@H](Cc2ccnc(N)c2)C(=O)N1C(=O)NC(c1ccccc1)c1ccccc1

>  <Target Entity>
Factor Xa (Homo sapiens, UniProt P00742)

>  <FXIa Fold Selectivity FXa>
G (“G” indicates 1-500)

$$$$
>  <Molecule>
CC(NC(=O)N1C(=O)[C@H](Cc2ccnc(N)c2)[C@H]1C(=O)O)c1cccc(F)c1 (stereo partly drawn)

>  <Target Entity>
Factor Xa (Homo sapiens, UniProt P00742)

>  <FXIa Fold Selectivity FXa>
I (“I” indicates >1000)

$$$$
>  <Molecule>
C[C@@H](NC(=O)N1C(=O)[C@H](Cc2ccnc(N)c2)[C@H]1C(=O)O)c1ccc(OC(F)(F)F)cc1

>  <Target Entity>
Factor Xa (Homo sapiens, UniProt P00742)

>  <FXIa Fold Selectivity FXa>
I (“I” indicates >1000)

$$$$
>  <Molecule>
C[C@@H](NC(=O)N1C(=O)[C@H](Cc2ccncc2)[C@H]1C(=O)O)c1ccc2c(c1)OC(F)(F)O2

>  <Target Entity>
Factor Xa (Homo sapiens, UniProt P00742)

>  <FXIa Fold Selectivity FXa>
G (“G” indicates 1-500)

$$$$

Shifting focus to the molecule that follows.
For reference, reported FXIa Fold Selectivity FXa for Nc1cc(C[C@H]2C(=O)N(C(=O)N[C@@H](C3CCCCC3)C(F)(F)F)[C@@H]2C(=O)O)ccn1 stands at I (“I” indicates >1000)

====

Parameter half-life: see the listing below.
Test Protocol: β-Lactam stability in rat plasma
Assay type: in vitro ADME
Details: normal rat plasma, room temperature; read-out: Rat Plasma Stability (T1/2; min)

// below: answered compounds
>  <Record Smiles>
CCOC(=O)[C@@H]1[C@@H](Cc2ccncc2)C(=O)N1C(=O)N[C@H](C)c1ccc2c(c1)OC(F)(F)O2

>  <half-life>
< 1.67 h

$$$$
>  <Record Smiles>
CCOC(=O)[C@@H]1[C@@H](Cc2ccnc(NC(=O)OCOC(=O)C(C)C)c2)C(=O)N1C(=O)N[C@H](C)C1CCCCC1

>  <half-life>
< 1.67 h

$$$$
>  <Record Smiles>
CNc1cc(C[C@H]2C(=O)N(C(=O)N[C@H](C)c3ccc4c(c3)OC(F)(F)O4)[C@@H]2C(=O)O)ccn1

>  <half-life>
> 1.67 h

$$$$
>  <Record Smiles>
CS(=O)(=O)[C@@H]1[C@@H](Cc2ccnc(N)c2)C(=O)N1C(=O)NC(c1ccccc1)c1ccccc1

>  <half-life>
< 1.67 h

$$$$
>  <Record Smiles>
C[C@@H](NC(=O)N1C(=O)[C@H](Cc2ccnc(N)c2)[C@H]1C(=O)O)c1ccc(OC(F)(F)F)cc1

>  <half-life>
> 1.67 h

$$$$

Shifting focus to the compound that follows.
For reference, reported half-life for CCOC(=O)[C@@H]1[C@@H](Cc2ccnc(N)c2)C(=O)N1C(=O)N[C@H](C)c1ccc(OC(F)(F)F)cc1 stands at < 1.67 h

====

Test Protocol: β-Lactam stability in rat plasma
Type: in vitro ADME
Details: normal rat plasma, room temperature; read-out: Rat Plasma Stability (T1/2; min)
Parameter half-life: see the listing below.

// below: answered compounds
>  <Compound>
C[C@@H](NC(=O)N1C(=O)[C@H](Cc2ccncc2)[C@H]1C(=O)O)c1ccc2c(c1)OC(F)(F)O2

>  <Measure Name>
half-life

>  <Meas Value>
> 1.67 h

$$$$
>  <Compound>
O=C(O)[C@@H]1[C@@H](CCc2cccc(Cl)c2F)C(=O)N1C(=O)N[C@@H](C1CCCCC1)C(F)(F)F

>  <Measure Name>
half-life

>  <Meas Value>
> 1.67 h

$$$$
>  <Compound>
C[C@@H](NC(=O)N1C(=O)C(Cc2ccnc(Cl)c2)[C@H]1C(=O)O)c1ccc2c(c1)OC(F)(F)O2 (some centres unmarked)

>  <Measure Name>
half-life

>  <Meas Value>
> 1.67 h

$$$$
>  <Compound>
C[C@@H](NC(=O)N1C(=O)[C@H](Cc2ccnc(N)c2)[C@H]1C#N)c1ccccc1

>  <Measure Name>
half-life

>  <Meas Value>
< 1.67 h

$$$$
>  <Compound>
C[C@@H](NC(=O)N1C(=O)[C@H](Cc2ccnc(N)c2)[C@H]1C(=O)O)c1cccc(OC(F)(F)F)c1

>  <Measure Name>
half-life

>  <Meas Value>
> 1.67 h

$$$$

For reference, reported half-life for CCO[C@@H]1[C@@H](Cc2ccnc(N)c2)C(=O)N1C(=O)NC(c1ccccc1)c1ccccc1 stands at > 1.67 h

For reference, reported half-life for O=C(O)[C@@H]1[C@@H](Cc2ccncc2)C(=O)N1C(=O)NC(c1ccccc1)c1ccccc1 stands at > 1.67 h

For reference, reported half-life for CCOC(=O)[C@@H]1C(Cc2ccnc(Cl)c2)C(=O)N1C(=O)N[C@H](C)c1ccc2c(c1)OC(F)(F)O2 (some centres unmarked) stands at < 1.67 h

====

Target Entity: Thrombin (Homo sapiens)
Construct: Thrombin; 0.2 μM in 50% glycerol (7.34 μg/mL)
Test Protocol: Dose response assay for protease inhibitors: thrombin (FXIa fold selectivity)
Type: biochemical
Details: fold selectivity for FXIa over thrombin
Measure Name: FXIa Fold Selectivity Thrombin

>  <Molecule>
CC(NC(=O)N1C(=O)[C@H](Cc2ccnc(N)c2)[C@H]1C(=O)O)c1cccc(F)c1 (stereo partly shown)

>  <Meas Value>
I (“I” indicates >1000)

$$$$
>  <Molecule>
C[C@@H](NC(=O)N1C(=O)[C@H](Cc2ccnc(N)c2)[C@H]1C(=O)O)c1ccc(OC(F)(F)F)cc1

>  <Meas Value>
I (“I” indicates >1000)

$$$$

====

Target Entity: Thrombin (Homo sapiens, UniProt P00734)
Construct: Thrombin; 0.2 μM in 50% glycerol (7.34 μg/mL)
Test Protocol: Dose response assay for protease inhibitors: thrombin (FXIa fold selectivity)
Assay type: biochemical
Details: fold selectivity for FXIa over thrombin
Excerpt: […]
Measure Name: FXIa Fold Selectivity Thrombin

// below: answered compounds
>  <Compound>
C[C@@H](NC(=O)N1C(=O)[C@H](Cc2ccnc(N)c2)[C@H]1C#N)c1ccccc1

>  <Target Entity>
Thrombin (Homo sapiens, UniProt P00734)

>  <FXIa Fold Selectivity Thrombin>
I (“I” indicates >1000)

$$$$
>  <Compound>
O=C(O)[C@@H]1[C@@H](CCc2cccc(Cl)c2F)C(=O)N1C(=O)N[C@@H](C1CCCCC1)C(F)(F)F

>  <Target Entity>
Thrombin (Homo sapiens, UniProt P00734)

>  <FXIa Fold Selectivity Thrombin>
I (“I” indicates >1000)

$$$$
>  <Compound>
C[C@@H](NC(=O)N1C(=O)[C@H](Cc2ccnc(N)c2)[C@H]1C(=O)O)c1cccc(OC(F)(F)F)c1

>  <Target Entity>
Thrombin (Homo sapiens, UniProt P00734)

>  <FXIa Fold Selectivity Thrombin>
I (“I” indicates >1000)

$$$$
>  <Compound>
CNc1cc(C[C@H]2C(=O)N(C(=O)N[C@H](C)c3ccc4c(c3)OC(F)(F)O4)[C@@H]2C(=O)O)ccn1

>  <Target Entity>
Thrombin (Homo sapiens, UniProt P00734)

>  <FXIa Fold Selectivity Thrombin>
I (“I” indicates >1000)

$$$$
>  <Compound>
CCOC(=O)[C@@H]1[C@@H](Cc2ccnc(N)c2)C(=O)N1C(=O)N[C@@H](C)c1ccc2c(c1)OC(F)(F)O2

>  <Target Entity>
Thrombin (Homo sapiens, UniProt P00734)

>  <FXIa Fold Selectivity Thrombin>
I (“I” indicates >1000)

$$$$
>  <Compound>
CCOC(=O)[C@@H]1[C@@H](Cc2ccnc(NC(=O)OCOC(=O)C(C)C)c2)C(=O)N1C(=O)N[C@H](C)C1CCCCC1

>  <Target Entity>
Thrombin (Homo sapiens, UniProt P00734)

>  <FXIa Fold Selectivity Thrombin>
I (“I” indicates >1000)

$$$$
>  <Compound>
CCOC(=O)[C@@H]1[C@@H](Cc2ccnc(NC(=O)[C@H](C)N)c2)C(=O)N1C(=O)N[C@H](C)c1ccc2c(c1)OC(F)(F)O2

>  <Target Entity>
Thrombin (Homo sapiens, UniProt P00734)

>  <FXIa Fold Selectivity Thrombin>
G (“G” indicates 1-500)

$$$$
>  <Compound>
CCOC(=O)[C@@H]1[C@@H](Cc2ccncc2)C(=O)N1C(=O)N[C@H](C)c1ccc2c(c1)OC(F)(F)O2

>  <Target Entity>
Thrombin (Homo sapiens, UniProt P00734)

>  <FXIa Fold Selectivity Thrombin>
G (“G” indicates 1-500)

$$$$

For reference, reported FXIa Fold Selectivity Thrombin for CCOC(=O)[C@@H]1[C@@H](Cc2ccnc(NC(=O)OCOC(=O)C(C)C)c2)C(=O)N1C(=O)N[C@H](C)c1ccc2c(c1)OC(F)(F)O2 stands at I (“I” indicates >1000)

For reference, reported FXIa Fold Selectivity Thrombin for CCO[C@@H]1[C@@H](Cc2ccnc(N)c2)C(=O)N1C(=O)NC(c1ccccc1)c1ccccc1 stands at G (“G” indicates 1-500)

For reference, reported FXIa Fold Selectivity Thrombin for CCOC(=O)[C@@H]1C(Cc2ccnc(Cl)c2)C(=O)N1C(=O)N[C@H](C)c1ccc2c(c1)OC(F)(F)O2 (stereo partly shown) stands at G (“G” indicates 1-500)

For reference, reported FXIa Fold Selectivity Thrombin for C[C@@H](NC(=O)N1C(=O)[C@H](Cc2ccnc(N)c2)[C@H]1C(=O)O)C1CCCCC1 stands at I (“I” indicates >1000)

For reference, reported FXIa Fold Selectivity Thrombin for O=C(O)[C@@H]1[C@@H](Cc2ccncc2)C(=O)N1C(=O)NC(c1ccccc1)c1ccccc1 stands at G (“G” indicates 1-500)

For reference, reported FXIa Fold Selectivity Thrombin for C[C@@H](NC(=O)N1C(=O)[C@H](Cc2ccnc(N)c2)[C@H]1C(=O)O)c1ccc2c(c1)OC(F)(F)O2 stands at I (“I” indicates >1000)

For reference, reported FXIa Fold Selectivity Thrombin for C[C@@H](NC(=O)N1C(=O)[C@H](Cc2ccnc(N)c2)[C@H]1C(=O)O)C1CCCCCCC1 stands at I (“I” indicates >1000)

For reference, reported FXIa Fold Selectivity Thrombin for CCOC(=O)[C@@H]1[C@@H](Cc2ccnc(NC)c2)C(=O)N1C(=O)N[C@H](C)c1ccc2c(c1)OC(F)(F)O2 stands at I (“I” indicates >1000)

Value source: patent US11198673B2
